Readings of MIC for the listed compounds
- Tested on: Staphylococcus aureus (MSSA)
- Test context: 24 h
- Experimental: (“Approved Standard M7-A3”). The antimicrobial lipopeptide derivatives described herein were tested for antimicrobial activity against Gram-positive bacteria as follows. The minimum inhibitory concentrations (MIC) of the antimicrobial lipopeptide derivatives of the invention were determined using NCCLS guidelines M7-A6 (2003) with a slight modification in that doubling serial dilutions were used to dilute the test compounds. The broth phase microdilution method was used. […]
Expressed in µg/mL, but write only the number.

Compound: CCCCCCCCCCCCCCC(=O)NC(CC(=O)O)C(=O)NC1C(=O)N2CCCCC2C(=O)NC(C(C)C(=O)O)C(=O)NC(CC(=O)O)C(=O)NCC(=O)NC(CC(=O)O)C(=O)NCC(=O)NC(C(C)NC(=O)CCCCCN)C(=O)NC(C(C)C)C(=O)N2CCCC2C(=O)NC1C (centres unmarked)
MIC (µg/mL): 1

// lookup MIC for CCCCCCCCCCCCCCC(=O)NC(CC(=O)O)C(=O)NC1C(=O)N2CCCCC2C(=O)NC(C(C)C(=O)O)C(=O)NC(CC(=O)O)C(=O)NCC(=O)NC(CC(=O)O)C(=O)NCC(=O)NC(C(C)NC(=O)[C@@H](N)CC)C(=O)NC(C(C)C)C(=O)N2CCCC2C(=O)NC1C (some centres unmarked)
4
